Experimental target: T1, human BAFF (10056-HNCH, Sino biological) (human, UniProt Q9Y275 134-285)
T1 construct: Bought protein
Assay info: ELISA, BAFF coated, fusion protein titrated
So basically: is EC50 under 0.2 nM? Then yes. Not under? Then no.

{"Binder": "TACI-9-3Fc (Fc fusion, two identical polypeptides) SLSCREEQGKFYDHLLRDCISCASICGQHPKQCAYFCENKLDKTHTCPPCPAPEAEGAPSVFLFPPKPKDTLMISRTPEVTCVVVDVSHEDPEVKFNWYVDGVEVHNAKTKPREEQYNSTYRVVSVLTVLHQDWLNGKEYKCKVSNKALPSSIEKTISKAKGQPREPQVYTLPPSRDELTKNQVSLTCLVKGFYPSDIAVEWESNGQPENNYKTTPPVLDSDGSFFLYSKLTVDKSRWQQGNVFSCSVMHEALHNHYTQKSLSLSPGK", "Qualitative label": "no"}
{"Binder": "TACI-9-15Fc (Fc fusion, two identical polypeptides) STSCREEQGEFYDHLLRDCISCASICGQHPKQCAAFCENKLDKTHTCPPCPAPEAEGAPSVFLFPPKPKDTLMISRTPEVTCVVVDVSHEDPEVKFNWYVDGVEVHNAKTKPREEQYNSTYRVVSVLTVLHQDWLNGKEYKCKVSNKALPSSIEKTISKAKGQPREPQVYTLPPSRDELTKNQVSLTCLVKGFYPSDIAVEWESNGQPENNYKTTPPVLDSDGSFFLYSKLTVDKSRWQQGNVFSCSVMHEALHNHYTQKSLSLSPGK", "Qualitative label": "yes"}
{"Binder": "TACI-9 Fc (Fc fusion, TACI positions 68-108, no mutation, fused directly to Fc; two identical polypeptides) SLSCRKEQGKFYDHLLRDCISCASICGQHPKQCAYFCENKLDKTHTCPPCPAPEAEGAPSVFLFPPKPKDTLMISRTPEVTCVVVDVSHEDPEVKFNWYVDGVEVHNAKTKPREEQYNSTYRVVSVLTVLHQDWLNGKEYKCKVSNKALPSSIEKTISKAKGQPREPQVYTLPPSRDELTKNQVSLTCLVKGFYPSDIAVEWESNGQPENNYKTTPPVLDSDGSFFLYSKLTVDKSRWQQGNVFSCSVMHEALHNHYTQKSLSLSPGK", "Qualitative label": "no"}
{"Binder": "TACI-9-10Fc (Fc fusion, TACI-9 with K6E and K10E, fused to Fc; two identical polypeptides) SLSCREEQGEFYDHLLRDCISCASICGQHPKQCAYFCENKLDKTHTCPPCPAPEAEGAPSVFLFPPKPKDTLMISRTPEVTCVVVDVSHEDPEVKFNWYVDGVEVHNAKTKPREEQYNSTYRVVSVLTVLHQDWLNGKEYKCKVSNKALPSSIEKTISKAKGQPREPQVYTLPPSRDELTKNQVSLTCLVKGFYPSDIAVEWESNGQPENNYKTTPPVLDSDGSFFLYSKLTVDKSRWQQGNVFSCSVMHEALHNHYTQKSLSLSPGK", "Qualitative label": "yes"}
